Reference source for all entries: patent US10457703B2

- Tested target: human FXR (NR1H4) (Homo sapiens (Human))
- Sequence (Q96RI1 whole entry, the tested form may be a part): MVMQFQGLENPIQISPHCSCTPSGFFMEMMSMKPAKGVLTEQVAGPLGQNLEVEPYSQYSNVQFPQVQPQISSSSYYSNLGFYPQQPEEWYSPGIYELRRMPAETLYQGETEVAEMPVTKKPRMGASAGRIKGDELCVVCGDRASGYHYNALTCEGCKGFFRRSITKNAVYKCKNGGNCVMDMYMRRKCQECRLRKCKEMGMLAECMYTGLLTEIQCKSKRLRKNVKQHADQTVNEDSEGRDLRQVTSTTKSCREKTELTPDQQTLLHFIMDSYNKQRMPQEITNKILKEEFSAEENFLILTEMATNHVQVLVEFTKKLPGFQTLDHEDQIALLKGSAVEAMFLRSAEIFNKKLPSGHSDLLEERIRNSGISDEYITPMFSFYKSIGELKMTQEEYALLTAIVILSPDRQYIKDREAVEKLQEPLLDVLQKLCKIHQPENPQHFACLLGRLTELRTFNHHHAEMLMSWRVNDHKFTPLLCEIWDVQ
- Measurement protocol: Human FXR (NR1H4) Assay (Gal4 promoter driven luciferase reporter, Indigo Bioscience kit)
- Study conditions: Human FXR (NR1H4) Assay, potency ranges
pEC50: −log10 of the molar value.
Metric name: pEC50

In the examples that follow, each entry is paired with its recorded pEC50.
structure=CC[C@H]1[C@@H](O)[C@@H]2[C@H](CC[C@]3(C)[C@@H]([C@H](C)CCOC(=O)N4CCC(C(N)=O)CC4)CC[C@@H]23)[C@@]2(C)CC[C@@H](O)C[C@@H]12 metric_name=pEC50 observed="6.00 to 7.00"
structure=CC[C@H]1[C@@H](O)[C@@H]2[C@H](CC[C@]3(C)[C@@H]([C@H](C)CCOC(=O)NC4CCCCCC4)CC[C@@H]23)[C@@]2(C)CC[C@@H](O)C[C@@H]12 metric_name=pEC50 observed="6.00 to 7.00"
structure=CC[C@H]1[C@@H](O)[C@@H]2[C@H](CC[C@]3(C)[C@@H]([C@H](C)COC(=O)NS(=O)(=O)c4ccc(N5CCCCC5)cc4)CC[C@@H]23)[C@@]2(C)CC[C@@H](O)C[C@@H]12 metric_name=pEC50 observed="> 7.00"
structure=CC[C@H]1[C@@H](O)[C@@H]2[C@H](CC[C@]3(C)[C@@H]([C@H](C)CCOC(=O)NC4CCCC4)CC[C@@H]23)[C@@]2(C)CC[C@@H](O)C[C@@H]12 metric_name=pEC50 observed="6.00 to 7.00"
structure=CC[C@H]1[C@@H](O)[C@@H]2[C@H](CC[C@]3(C)[C@@H]([C@H](C)CCOC(=O)N4CCC(N5CCCCC5)CC4)CC[C@@H]23)[C@@]2(C)CC[C@@H](O)C[C@@H]12 metric_name=pEC50 observed="6.00 to 7.00"
structure=CC[C@H]1[C@@H](O)[C@@H]2[C@H](CC[C@]3(C)[C@@H]([C@H](C)COC(=O)NS(=O)(=O)c4cccc(OC(C)(C)C)c4)CC[C@@H]23)[C@@]2(C)CC[C@@H](O)C[C@@H]12 metric_name=pEC50 observed="6.00 to 7.00"

Provide each entry's pEC50 from the list below.
1. CC[C@H]1[C@@H](O)[C@@H]2[C@H](CC[C@]3(C)[C@@H]([C@H](C)CCOC(=O)NS(=O)(=O)c4cccc(Cl)c4)CC[C@@H]23)[C@@]2(C)CC[C@@H](O)C[C@@H]12
2. CCC(CC)S(=O)(=O)NC(=O)OCC[C@@H](C)[C@H]1CC[C@H]2[C@@H]3[C@H](O)[C@H](CC)[C@@H]4C[C@H](O)CC[C@]4(C)[C@H]3CC[C@]12C
3. CC[C@H]1[C@@H](O)[C@@H]2[C@H](CC[C@]3(C)[C@@H]([C@H](C)COC(=O)NS(=O)(=O)c4ccc(N5CCC5)nc4)CC[C@@H]23)[C@@]2(C)CC[C@@H](O)C[C@@H]12

1: > 7.00; 2: > 7.00; 3: > 7.00

* * *

- Tested target: UniProt Q96RI1
- Measurement protocol: Human FXR (NR1H4) Assay (Gal4 promoter driven luciferase reporter, Indigo Bioscience kit);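 as to Efficacy (%): 100% equals the efficacy of CDCA; efficacy normalized to CDCA set as 100%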
- Type: cell-based
- Study conditions: read-out: Efficacy (%)
Metric name: Emax (%)
One number for each entry, in %.

compound="CC[C@H]1[C@@H](O)[C@@H]2[C@H](CC[C@]3(C)[C@@H]([C@H](C)CCOC(=O)NS(=O)(=O)c4ccc(C(F)(F)F)cc4)CC[C@@H]23)[C@@]2(C)CC[C@@H](O)C[C@@H]12 [Example 79]" observed=376
compound="CC[C@H]1[C@@H](O)[C@@H]2[C@H](CC[C@]3(C)[C@@H]([C@H](C)CCOC(=O)N4CCCC4)CC[C@@H]23)[C@@]2(C)CC[C@@H](O)C[C@@H]12 [Example 147]" observed=228
compound="CC[C@H]1[C@@H](O)[C@@H]2[C@H](CC[C@]3(C)[C@@H]([C@H](C)CCCOC(=O)N4CCCC4)CC[C@@H]23)[C@@]2(C)CC[C@@H](O)C[C@@H]12 [Example 131]" observed=202
compound="CC[C@H]1[C@@H](O)[C@@H]2[C@H](CC[C@]3(C)[C@@H]([C@H](C)CCOC(=O)NS(=O)(=O)N4CC(F)(F)C4)CC[C@@H]23)[C@@]2(C)CC[C@@H](O)C[C@@H]12 [Example 104-j]" observed=327

Next item in the queue.
Retrieve Emax measured for CC[C@H]1[C@@H](O)[C@@H]2[C@H](CC[C@]3(C)[C@@H]([C@H](C)CCOC(=O)NS(=O)(=O)CC)CC[C@@H]23)[C@@]2(C)CC[C@@H](O)C[C@@H]12 [Example 98] and print it.
279
